# Tgt: Superoxide Dismutase (SOD)
# Assay overview: SOD activation assay (kit)
# Condition notes: 72 h, compounds series
The reader will find reported pEC50 values listed item by item below.
Lab note: report pEC50 as minus log10 of the concentration in molar units, number only.

Below: 3 molecules and their reported pEC50.
**Query** Provide value of pEC50 for this record tested with Superoxide Dismutase (SOD): C[C@H]1[C@H](C)CC[C@]2(C(=O)O)CC[C@]3(C)C(=CC(=O)[C@@H]4[C@@]5(C)CCC(=O)C(C)(C)[C@@H]5CC[C@]43C)[C@H]12 [compound 1, 3,11-dioxours-12-en-28-oic acid]
**Result** 5.73

**Query** Provide value of pEC50 for this record tested with Superoxide Dismutase (SOD): O=C(O)c1cc(O)c(O)c(O)c1 [GA, gallic acid, reference compound]
**Result** 4.92

**Query** Provide value of pEC50 for this record tested with Superoxide Dismutase (SOD): CC(=O)O[C@H]1CC[C@]2(C)[C@H]3C(=O)C=C4[C@@H]5[C@@H](C)[C@H](C)CC[C@]5(C(=O)O)CC[C@@]4(C)[C@]3(C)CC[C@H]2C1(C)C [compound 2]
**Result** 5.13

Query molecule follows.
**Query** Provide value of pEC50 for this record tested with Superoxide Dismutase (SOD): C[C@H]1[C@H](C)CC[C@]2(C(=O)O)CC[C@]3(C)C(=CC(=O)[C@@H]4[C@@]5(C)CC[C@H](O)C(C)(C)[C@@H]5CC[C@]43C)[C@H]12 [compound 3]
**Result** 4.88

* * *

The reader will find reported CC50 at 72 h values listed item by item below.
# Assay overview: NR (neutral red) viability assay, RAW 264.7 cells
# Format: cell-based, Mus musculus
# Condition notes: mouse, RAW 264.7 macrophage cells, RAW 264.7, 72 h, compounds series
Just the number please, in µM, no unit attached.

**Query** Given the compound `C[C@H]1[C@H](C)CC[C@]2(C(=O)O)CC[C@]3(C)C(=CC(=O)[C@@H]4[C@@]5(C)CC[C@H](O)C(C)(C)[C@@H]5CC[C@]43C)[C@H]12` , what is its reported CC50 at 72 h?
**Result** 92.4

**Query** Given the compound `CC(=O)O[C@H]1CC[C@]2(C)[C@H]3C(=O)C=C4[C@@H]5[C@@H](C)[C@H](C)CC[C@]5(C(=O)O)CC[C@@]4(C)[C@]3(C)CC[C@H]2C1(C)C` , what is its reported CC50 at 72 h?
**Result** 84.9

Query compound follows.
**Query** Given the compound `C[C@H]1[C@H](C)CC[C@]2(C(=O)O)CC[C@]3(C)C(=CC(=O)[C@@H]4[C@@]5(C)CCC(=O)C(C)(C)[C@@H]5CC[C@]43C)[C@H]12` , what is its reported CC50 at 72 h?
**Result** 75.4

* * *

# Assay overview: NR (neutral red) viability assay, IC-21 cells
# Assay type: cell-based, Mus musculus
# Condition notes: mouse, IC-21 macrophage cells, IC-21, 72 h, compounds series
The reader will find reported CC50 at 72 h values listed item by item below.
Phrase the answer as number then unit, nothing more needed.

Below: 2 compounds and their reported CC50 at 72 h.
**Query** Given the compound C[C@H]1[C@H](C)CC[C@]2(C(=O)O)CC[C@]3(C)C(=CC(=O)[C@@H]4[C@@]5(C)CCC(=O)C(C)(C)[C@@H]5CC[C@]43C)[C@H]12 [compound 1, 3,11-dioxours-12-en-28-oic acid] , what is its reported CC50 at 72 h?
**Result** 67.6 µM

**Query** Given the compound CC(=O)O[C@H]1CC[C@]2(C)[C@H]3C(=O)C=C4[C@@H]5[C@@H](C)[C@H](C)CC[C@]5(C(=O)O)CC[C@@]4(C)[C@]3(C)CC[C@H]2C1(C)C [compound 2] , what is its reported CC50 at 72 h?
**Result** 78.5 µM

Query compound follows.
**Query** Given the compound C[C@H]1[C@H](C)CC[C@]2(C(=O)O)CC[C@]3(C)C(=CC(=O)[C@@H]4[C@@]5(C)CC[C@H](O)C(C)(C)[C@@H]5CC[C@]43C)[C@H]12 [compound 3] , what is its reported CC50 at 72 h?
**Result** 88.5 µM

All values here come from paper PMC11395096.
